Test system: NCI-H522 lung
Test: NCI tumour cell line growth inhibition, 48 h

Compound | GI50
COc1ccc2c(c1)/C(=C/c1cc(OC)c(OC)c(OC)c1)C(=O)N2 | 250 nM
COc1cnc2c(c1)C(=O)c1c-2n(CCCN2CCN(C)CC2)c(=O)c2cc([N+](=O)[O-])ccc12 | 479 nM
COc1ccc(C(=O)c2ccc([As]=O)cc2)cc1 (stereo unspecified) | 90.2 nM
O=C(N/N=C/c1ccccc1O)c1ccccc1 | 2670 nM
CCOC(=O)/C(C#N)=C\C=C(/Cl)c1ccc(Cl)cc1 | 14000 nM
Nc1ccc(/C=C/C(=O)NCc2cc3cc(-c4ccc(C(=O)N5CCC(F)(F)CC5)cc4)cc(-c4ccc(F)cc4)c3o2)cn1 | 773 nM
